test system: Trypanosoma brucei rhodesiense (T. b. r.); test: In vitro antiprotozoal activity against T. b. r.; format: cell-based; details: Trypanosoma brucei, RHODESIENSE, read-out: T. b. IC50
Where a name gives a salt, the structure may show the parent alone.
readout label: IC50 (nM)
Value expressed in nM; do not type the unit.

Look up and report measured IC50 for this entry: N=C(N)c1ccc(-c2cnc(-c3ccc(C(=N)N)cc3)cn2)cc1 [Compound 75, hydrochloride salt]
18

====

Structures can show the parent of a compound that is named as a salt.
Exercise: state measured melting point for each of the compounds provided.

Look up and report measured melting point for this entry: CC(=O)O.N=C(N)c1ccc(-c2ccc(-c3ccc(C(=N)N)o3)cc2)o1
228 to 230 °C

Look up and report measured melting point for this entry: CONC(=N)c1ccc(-c2cnc(-c3ccc(C(=N)NOC)cc3)nc2)cc1 (as salt: hydrochloride)
217 to 218 °C

Look up and report measured melting point for this entry: N=C(NO)c1ccc(-c2ccc(-c3ccc(C(=N)NO)o3)cn2)cc1
194 to 195 °C

Look up and report measured melting point for this entry: N=C(NO)c1ccc(-c2cnc(-c3ccc(C(=N)NO)cc3)nc2)cc1
290 to 292 °C

Look up and report measured melting point for this entry: Cl.N=C(N)c1ccc(-c2ccc(-c3ccc(C(=N)N)cc3)c(C(F)(F)F)c2)cc1 [Compound 23b]
> 300 °C

Look up and report measured melting point for this entry: N=C(NO)c1ccc(-c2ccc(-c3ccc(C(=N)NO)o3)cc2)o1
> 300 °C

====

Exercise: state measured pIC50 for each of the molecules provided.
test system: L-6 rat mycoblast cells; test: cells; conditions: read-out: CT IC50; Table 1; L-6 cells
Counter-ions that a name gives are not always drawn.
Here pIC50 is given on a logarithmic scale as minus log10 of the concentration in mol/L.

Under L-6 rat mycoblast cells, report pIC50 for CON=C(N)c1ccc(-c2ccc(-c3ccc(C(N)=NOC)cc3)c(C(F)(F)F)c2)cc1 [Compound 25b]
4.37

Under L-6 rat mycoblast cells, report pIC50 for NC(=NO)c1ccc(-c2ccc(-c3ccc(C(N)=NO)cc3)c(F)c2)cc1 [Compound 24a]
4.54

Under L-6 rat mycoblast cells, report pIC50 for CNC(=N)Nc1ccc(-c2ccc(-c3ccc(NC(=N)NC)cc3)cc2)cc1 [Compound 51a]
4.19

Under L-6 rat mycoblast cells, report pIC50 for N=C(N)c1ccc(Cc2ccc(-c3ccc(C(=N)N)cc3)nc2)cc1 [Compound 36a, acetate salt]
4.74

Under L-6 rat mycoblast cells, report pIC50 for CC(C)N=C(N)Nc1ccc(-c2ccc(-c3ccc(NC(N)=NC(C)C)cc3)cc2)cc1 [Compound 51b]
4.66

Under L-6 rat mycoblast cells, report pIC50 for CCOC(=O)N=C(Nc1ccc(-c2ccc(-c3ccc(NC(=NC(=O)OCC)NC(C)C)cc3)cc2)cc1)NC(C)C [Compound 50c]
5.28

Under L-6 rat mycoblast cells, report pIC50 for CC(=O)O.N=C(N)c1ccc(-c2ccc(-c3ccc(C(=N)N)cc3)nc2)cc1 [Compound 23c, acetate salt]
4.30

Under L-6 rat mycoblast cells, report pIC50 for Cl.NC(=NO)c1ccc(-c2ccc(-c3ccc(C(N)=NO)nc3)cc2)cn1 [Compound 67, hydrochloride salt]
5.09

Under L-6 rat mycoblast cells, report pIC50 for NC(=NO)c1ccc(-c2ccc(-c3ccc(C(N)=NO)cc3)c(C(F)(F)F)c2)cc1 [Compound 24b]
4.88

Under L-6 rat mycoblast cells, report pIC50 for CCOC(=O)N=C(NC)Nc1ccc(-c2ccc(-c3ccc(NC(=NC(=O)OCC)NC)cc3)cc2)cc1 [Compound 50b]
5.24
